- target.of.assay: T1, Human CD98, endogenous on HCC38, Molt-4 and Jurkat human cancer cells (human)
- T1 chain: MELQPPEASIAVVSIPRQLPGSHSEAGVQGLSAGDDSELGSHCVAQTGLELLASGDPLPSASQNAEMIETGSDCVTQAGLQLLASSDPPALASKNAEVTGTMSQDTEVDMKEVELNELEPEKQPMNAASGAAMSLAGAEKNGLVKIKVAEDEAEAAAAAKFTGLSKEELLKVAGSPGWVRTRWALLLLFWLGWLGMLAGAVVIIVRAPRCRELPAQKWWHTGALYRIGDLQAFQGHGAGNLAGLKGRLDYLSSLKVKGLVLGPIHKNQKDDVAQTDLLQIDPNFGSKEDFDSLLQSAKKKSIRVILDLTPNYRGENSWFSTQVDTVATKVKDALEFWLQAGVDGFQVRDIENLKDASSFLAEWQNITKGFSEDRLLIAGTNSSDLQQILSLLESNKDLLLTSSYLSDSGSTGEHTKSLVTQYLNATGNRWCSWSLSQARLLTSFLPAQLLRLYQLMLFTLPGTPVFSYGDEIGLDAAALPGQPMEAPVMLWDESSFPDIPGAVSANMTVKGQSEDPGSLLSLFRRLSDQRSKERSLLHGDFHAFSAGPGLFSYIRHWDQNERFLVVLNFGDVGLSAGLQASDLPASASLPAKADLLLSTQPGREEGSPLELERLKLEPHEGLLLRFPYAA
- experiment.notes: cell-based or functional assay
Listed here: items and their measured ADC potency, IC50 (nM), HCC38 growth inhibition.
The answer is to be given in nM; state only the numeric part.

[
  {
    "binder": "Ab12-CZ (Ab12 conjugated to Bcl-xL inhibitor synthon CZ) (antibody, V domains shown) VH: EVQLVESGGGLVQPGRSLKLSCAASGFTFSDYAMAWVRQAPKKGLEWVASIIYDGRGTYYRDSVKGRFTISRDNAKSTLYLQMDSLRSEDTATYYCARQGDGTYYYWGSFDYWGQGVMVTVSS VL: DIVMTQSPSSLAVSAGETVTINCKSSQSLLSSGNQKNYLAWYQQKPGQSPKLLIYWASTRQSGVPDRFIGSGSGTDFTLTISSVQAEDLAIYHCQQYYDTPYTFGAGTKLELK",
    "endpoint.value": 0.685
  }
]

Problem: Using the record for Ab11-CZ (Ab11 conjugated to Bcl-xL inhibitor synthon CZ) (antibody, V domains shown) VH: EVQLVESGGGLVQPGRSLKLSCAASGFTFSDYAMAWVRQAPKKGLEWVAGIIYDGRGTYYRDSVKGRFTISRDNAKSTLYLQMDSLRSEDTATYYCARQGDGTYYYWGYFDYWGQGVMVTVSS VL: DIVMTQSPSSLAVSAGETVTINCRSSQSLLSSGNQKNYLAWYQQKPGQSPKLLIYWASTRQSGVPDRFIGSGSGTDFTLTISSVQAEDLAIYYCQQYYDTPYTFGAGTKLELK , report its ADC potency, IC50 (nM), HCC38 growth inhibition.
Result: 1.14

Problem: Can you handle Ab10-CZ (Ab10 conjugated to Bcl-xL inhibitor synthon CZ) (antibody, V domains shown) VH: EVQLVESGGGLVQPGRSLKLSCAASGFTFSDYAMAWVRQAPKKSLEWVATIIYDGRGTYCRDSVKGRFTISRDNAKSTLYLQMDSLRSEDTATYYCARQGDGTYHYWGYFDYWGQGVMVTVSS VL: DIVMTQSPSSLAVSAGETVTINCKSSQSLLSSGNQKNYLAWYQQKPGQSPKLLIYWASTRQSGVPDRFIGSGSGTDFTLTISSVQAEDLAIYYCQQYYDTPYTFGAGTKVDLK next?
Result: 1.16

Problem: Can you handle Ab1-CZ (Ab1 conjugated to Bcl-xL inhibitor synthon CZ) (antibody, V domains shown) VH: EVKLVESGGGLVQPGGSLRLSCATSGFTFTDYYMSWVRQPPGKALEWLGFIRNPANVYTTEYSASVKGRFTISRDNSQSILYLQMNTLRAEDSATYYCARASYGNSEGWFAYWGQGTLVTVSA VL: DIVMSQSPSSLAVSVGEKVTMSCKSSQNLLYNNNQKNYLAWYQQKPGQSPKLLIYWASTRESGVPDRFTGSGSGTDFTLTISSVKAEDLAVYYCQQYYSYPRTFGGGTKLEIK next?
Result: 0.998

Problem: Can you handle Ab8-CZ (Ab8 conjugated to Bcl-xL inhibitor synthon CZ) (antibody, V domains shown) VH: EVQLVESGGGLVQPGRSLKLSCAASGFTFSDYAMAWVRQAPKKGLEWVASIIYDGRGTYYRDSVKGRFTISRDNAKSTLYLQMDSLRSEDTATYYCARQGDGTYYYWGYFDYWGQGVMVTVSS VL: DIVMTQSPSSLAVSAGETVTINCKSSQSLLSSGNQKNYLAWYQQKPGQSPKLLIYWASTRQSGVPDRFIGSGSGTDFTLTINSVQAEDLAIYYCQQYYDTPYTFGAGTKLELK next?
Result: 0.963

Problem: Can you handle Ab15-CZ (Ab15 conjugated to Bcl-xL inhibitor synthon CZ) (antibody, V domains shown) VH: EVQLVESGGGLVQPGRSLKLSCAASGFTFSDYTMAWVRQAPKKGLEWVATIIYDGRGTYYRDSVKGRFTISRDNAKSTLYLQMDSLRSEDTATYYCARQSDGTYYYWGYFDYWGQGVMVTVSS VL: DIVMTQSPSSLAVSAGETVTINCKSSQSLLFSGNQKNYLAWYQQKPGQSPKLLIYWASTRQSGVPDRFIGSGSGTDFTLTIRSVQAEDLAIYYCQQYYDSPYTFGAGTKLELK next?
Result: 1.06
